- assay-details: Cytotoxicity against mouse RAW264.7 cells assessed as cell viability at 80 uM after 24 hrs by MTT assay relative to control
- Type: cell-based
- experimental-context: read-out: Activity
viability at 24 h, 80 µM values, listed per item
Give the quantity in %, number only.

Consider the reported viability at 24 h, 80 µM for these molecules:
>>> df
                                        smi  unit_abbreviation  reported
0    O=C(Oc1ccccc1)c1c(-c2ccccc2)sc2c1CCCC2                  %      50.8
1  CC(=O)Nc1ccc(OC(=O)c2c(-c3ccccc3)sc3c2CCCC3)cc1                  %      41.3
2  CC(=O)c1cccc(OC(=O)c2c(-c3ccccc3)sc3c2CCCC3)c1                  %      64.5
3  Cc1ccc(-c2cc(C(F)(F)F)nn2-c2ccc(S(N)(=O)=O)cc2)cc1                  %      33.9

Memo: NS(=O)(=O)c1ccc(OC(=O)c2c(-c3ccccc3)sc3c2CCCC3)cc1 , reported viability at 24 h, 80 µM: 83.7
